# protocol description: recombinant barcode read abundance after kanamycin selection (control-corrected) (log10(CPM+1)); higher = more efficient recombination; sequences stand for … in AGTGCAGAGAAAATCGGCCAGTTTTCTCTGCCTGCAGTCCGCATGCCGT…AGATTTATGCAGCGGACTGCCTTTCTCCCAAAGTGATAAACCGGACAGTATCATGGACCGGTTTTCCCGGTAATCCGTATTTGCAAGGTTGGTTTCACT; site = the 11-nt target;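 further: IS621 recombinase and bridge RNA in Escherichia coli cells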
Examples of sequences with documented recombinant barcode read abundance (log10) follow.
Enter the number alone.

CTACTTGCTTGGGTTCTAACCTGTTGCAA (site CTAATTGCTTT) = 0.364
CCGCCTCCTTGGGTTCTAACCTGTTGCGA (site CCGCCTCCTTC) = 0.616
AGGAACCCTTGGGTTCTAACCTGTTGCTG (site AGGAACCCTGA) = 0.106
CAACCGCCTTGGGTTCTAACCTGTTGCCT (site CAACCGGCTAG) = 0.402
TAGCTGTCTTGGGTTCTAACCTGTTGCGT (site TAGCTGTCTAC) = 2.29
AGAAGTCCTTGGGTTCTAACCTGTTGCTG (site AGAAGTCCTCG) = 0.0922
GTTCAGCCTTGGGTTCTAACCTGTTGCCT (site GTCGAGCCTAG) = 0.0107
AGCAGTCCTTGGGTTCTAACCTGTTGCGT (site AGGAGTCCTAC) = 0.188

Lookup: Answer with the recorded recombinant barcode read abundance (log10) of CGTTCCACTTGGGTTCTAACCTGTTGCCT (site CGTTCCACTAG) only.
Found: 0.0687

Lookup: Supply recorded recombinant barcode read abundance (log10) for CCGGTAACTTGGGTTCTAACCTGTTGCCT (site CCGGTAACTAG) here.
Found: 0.45
